# Test system: gluten-reactive T cells
# ASSAY_SUMMARY: 96-well plate whole blood cytokine release, IFNγ by MAGPIX multiplex bead assay
# Assay type: cell-based, human
# MEASUREMENT_PARAMETERS: Subject 9; after oral gluten challenge; Max. 67 pg/mL
Non-standard residues stand in square brackets, D forms with d. pGlu = O=C1CC[C@@H](C(=O)O)N1
METRIC: Percent of maximal response to individual gluten peptides, IFNg

Query: Quick one: Percent of maximal response to individual gluten peptides, IFNg of (pE)SGEGSFQPSQENPQ-amide ([pGlu]SGEGSFQPSQENPQ-NH2; SMILES NC(=O)CC[C@H](NC(=O)[C@@H]1CCCN1C(=O)[C@H](CC(N)=O)NC(=O)[C@H](CCC(=O)O)NC(=O)[C@H](CCC(N)=O)NC(=O)[C@H](CO)NC(=O)[C@@H]1CCCN1C(=O)[C@H](CCC(N)=O)NC(=O)[C@H](Cc1ccccc1)NC(=O)[C@H](CO)NC(=O)CNC(=O)[C@H](CCC(=O)O)NC(=O)CNC(=O)[C@H](CO)NC(=O)[C@@H]1CCC(=O)N1)C(N)=O) [Peptide 9] ?
Response: 0 % of max

====

# System: gluten-reactive T cells
# ASSAY_SUMMARY: 96-well plate whole blood cytokine release, IP-10 by MAGPIX multiplex bead assay
# Assay type: cell-based, human
# MEASUREMENT_PARAMETERS: Subject 6; after oral gluten challenge; Max. 5863 pg/mL
Non-standard residues stand in square brackets, D forms with d. pGlu = O=C1CC[C@@H](C(=O)O)N1
METRIC: Percent of maximal response to individual gluten peptides, IP-10

(pE)PEQPIPEQPQPYPQQ-amide ([pGlu]PEQPIPEQPQPYPQQ-NH2; SMILES CC[C@H](C)[C@H](NC(=O)[C@@H]1CCCN1C(=O)[C@H](CCC(N)=O)NC(=O)[C@H](CCC(=O)O)NC(=O)[C@@H]1CCCN1C(=O)[C@@H]1CCC(=O)N1)C(=O)N1CCC[C@H]1C(=O)N[C@@H](CCC(=O)O)C(=O)N[C@@H](CCC(N)=O)C(=O)N1CCC[C@H]1C(=O)N[C@@H](CCC(N)=O)C(=O)N1CCC[C@H]1C(=O)N[C@@H](Cc1ccc(O)cc1)C(=O)N1CCC[C@H]1C(=O)N[C@@H](CCC(N)=O)C(=O)N[C@@H](CCC(N)=O)C(N)=O) [Peptide 3] : 43 % of max
(pE)LQPFPQPELPYPQPQ-amide ([pGlu]LQPFPQPELPYPQPQ-NH2; SMILES CC(C)C[C@H](NC(=O)[C@@H]1CCC(=O)N1)C(=O)N[C@@H](CCC(N)=O)C(=O)N1CCC[C@H]1C(=O)N[C@@H](Cc1ccccc1)C(=O)N1CCC[C@H]1C(=O)N[C@@H](CCC(N)=O)C(=O)N1CCC[C@H]1C(=O)N[C@@H](CCC(=O)O)C(=O)N[C@@H](CC(C)C)C(=O)N1CCC[C@H]1C(=O)N[C@@H](Cc1ccc(O)cc1)C(=O)N1CCC[C@H]1C(=O)N[C@@H](CCC(N)=O)C(=O)N1CCC[C@H]1C(=O)N[C@@H](CCC(N)=O)C(N)=O) [Peptide 1] : 23 % of max
(pE)GQQGYYPTSPQQSG-amide ([pGlu]GQQGYYPTSPQQSG-NH2; SMILES C[C@@H](O)[C@H](NC(=O)[C@@H]1CCCN1C(=O)[C@H](Cc1ccc(O)cc1)NC(=O)[C@H](Cc1ccc(O)cc1)NC(=O)CNC(=O)[C@H](CCC(N)=O)NC(=O)[C@H](CCC(N)=O)NC(=O)CNC(=O)[C@@H]1CCC(=O)N1)C(=O)N[C@@H](CO)C(=O)N1CCC[C@H]1C(=O)N[C@@H](CCC(N)=O)C(=O)N[C@@H](CCC(N)=O)C(=O)N[C@@H](CO)C(=O)NCC(N)=O) [Peptide 10] : 0 % of max
(pE)QPPFSEQEQPVLPQ-amide (N-terminal pyroglutamate; C-terminal amide) [Peptide 13] : 5 % of max
(pE)PEQPEQPFPEQPQQ-amide ([pGlu]PEQPEQPFPEQPQQ-NH2; SMILES NC(=O)CC[C@H](NC(=O)[C@H](CCC(N)=O)NC(=O)[C@@H]1CCCN1C(=O)[C@H](CCC(N)=O)NC(=O)[C@H](CCC(=O)O)NC(=O)[C@@H]1CCCN1C(=O)[C@H](Cc1ccccc1)NC(=O)[C@@H]1CCCN1C(=O)[C@H](CCC(N)=O)NC(=O)[C@H](CCC(=O)O)NC(=O)[C@@H]1CCCN1C(=O)[C@H](CCC(N)=O)NC(=O)[C@H](CCC(=O)O)NC(=O)[C@@H]1CCCN1C(=O)[C@@H]1CCC(=O)N1)C(N)=O) [Peptide 11] : 0 % of max
(pE)QPYPQPELPYPQPQ-amide ([pGlu]QPYPQPELPYPQPQ-NH2; SMILES CC(C)C[C@H](NC(=O)[C@H](CCC(=O)O)NC(=O)[C@@H]1CCCN1C(=O)[C@H](CCC(N)=O)NC(=O)[C@@H]1CCCN1C(=O)[C@H](Cc1ccc(O)cc1)NC(=O)[C@@H]1CCCN1C(=O)[C@H](CCC(N)=O)NC(=O)[C@@H]1CCC(=O)N1)C(=O)N1CCC[C@H]1C(=O)N[C@@H](Cc1ccc(O)cc1)C(=O)N1CCC[C@H]1C(=O)N[C@@H](CCC(N)=O)C(=O)N1CCC[C@H]1C(=O)N[C@@H](CCC(N)=O)C(N)=O) [Peptide 15] : 0 % of max

Now turn to the next substance.
Query: GET /values?readout=Percent of maximal response to individual gluten peptides, IP-10&item= (pE)QPFPQPELPYPYPQ-amide ([pGlu]QPFPQPELPYPYPQ-NH2; SMILES CC(C)C[C@H](NC(=O)[C@H](CCC(=O)O)NC(=O)[C@@H]1CCCN1C(=O)[C@H](CCC(N)=O)NC(=O)[C@@H]1CCCN1C(=O)[C@H](Cc1ccccc1)NC(=O)[C@@H]1CCCN1C(=O)[C@H](CCC(N)=O)NC(=O)[C@@H]1CCC(=O)N1)C(=O)N1CCC[C@H]1C(=O)N[C@@H](Cc1ccc(O)cc1)C(=O)N1CCC[C@H]1C(=O)N[C@@H](Cc1ccc(O)cc1)C(=O)N1CCC[C@H]1C(=O)N[C@@H](CCC(N)=O)C(N)=O) [Peptide 16]
Response: 4 % of max

====

The entries below are paired with their reported Percent of maximal response to individual gluten peptides, ELISp.
# System: gluten-reactive T cells
# ASSAY_SUMMARY: Overnight IFNγ ELISpot assay with fresh PBMC
# Format: cell-based, human
# MEASUREMENT_PARAMETERS: Subject 8; after oral gluten challenge; Max. 17 SFU
Non-standard residues stand in square brackets, D forms with d. pGlu = O=C1CC[C@@H](C(=O)O)N1

Reference set (6 entries):
(pE)PEQPEQPFPEQPQQ-amide ([pGlu]PEQPEQPFPEQPQQ-NH2; SMILES NC(=O)CC[C@H](NC(=O)[C@H](CCC(N)=O)NC(=O)[C@@H]1CCCN1C(=O)[C@H](CCC(N)=O)NC(=O)[C@H](CCC(=O)O)NC(=O)[C@@H]1CCCN1C(=O)[C@H](Cc1ccccc1)NC(=O)[C@@H]1CCCN1C(=O)[C@H](CCC(N)=O)NC(=O)[C@H](CCC(=O)O)NC(=O)[C@@H]1CCCN1C(=O)[C@H](CCC(N)=O)NC(=O)[C@H](CCC(=O)O)NC(=O)[C@@H]1CCCN1C(=O)[C@@H]1CCC(=O)N1)C(N)=O) [Peptide 11] : 6 % of max
(pE)PQPYPEQPQPFPQQ-amide ([pGlu]PQPYPEQPQPFPQQ-NH2; SMILES NC(=O)CC[C@H](NC(=O)[C@H](CCC(N)=O)NC(=O)[C@@H]1CCCN1C(=O)[C@H](Cc1ccccc1)NC(=O)[C@@H]1CCCN1C(=O)[C@H](CCC(N)=O)NC(=O)[C@@H]1CCCN1C(=O)[C@H](CCC(N)=O)NC(=O)[C@H](CCC(=O)O)NC(=O)[C@@H]1CCCN1C(=O)[C@H](Cc1ccc(O)cc1)NC(=O)[C@@H]1CCCN1C(=O)[C@H](CCC(N)=O)NC(=O)[C@@H]1CCCN1C(=O)[C@@H]1CCC(=O)N1)C(N)=O) [Peptide 8] : 18 % of max
(pE)GQQGYYPTSPQQSG-amide ([pGlu]GQQGYYPTSPQQSG-NH2; SMILES C[C@@H](O)[C@H](NC(=O)[C@@H]1CCCN1C(=O)[C@H](Cc1ccc(O)cc1)NC(=O)[C@H](Cc1ccc(O)cc1)NC(=O)CNC(=O)[C@H](CCC(N)=O)NC(=O)[C@H](CCC(N)=O)NC(=O)CNC(=O)[C@@H]1CCC(=O)N1)C(=O)N[C@@H](CO)C(=O)N1CCC[C@H]1C(=O)N[C@@H](CCC(N)=O)C(=O)N[C@@H](CCC(N)=O)C(=O)N[C@@H](CO)C(=O)NCC(N)=O) [Peptide 10] : 0 % of max
(pE)PEQPIPEQPQPYPQQ-amide ([pGlu]PEQPIPEQPQPYPQQ-NH2; SMILES CC[C@H](C)[C@H](NC(=O)[C@@H]1CCCN1C(=O)[C@H](CCC(N)=O)NC(=O)[C@H](CCC(=O)O)NC(=O)[C@@H]1CCCN1C(=O)[C@@H]1CCC(=O)N1)C(=O)N1CCC[C@H]1C(=O)N[C@@H](CCC(=O)O)C(=O)N[C@@H](CCC(N)=O)C(=O)N1CCC[C@H]1C(=O)N[C@@H](CCC(N)=O)C(=O)N1CCC[C@H]1C(=O)N[C@@H](Cc1ccc(O)cc1)C(=O)N1CCC[C@H]1C(=O)N[C@@H](CCC(N)=O)C(=O)N[C@@H](CCC(N)=O)C(N)=O) [Peptide 3] : 53 % of max
(pE)QPFPQPEQPFSQQ-amide ([pGlu]QPFPQPEQPFSQQ-NH2; SMILES NC(=O)CC[C@H](NC(=O)[C@H](CCC(N)=O)NC(=O)[C@H](CO)NC(=O)[C@H](Cc1ccccc1)NC(=O)[C@@H]1CCCN1C(=O)[C@H](CCC(N)=O)NC(=O)[C@H](CCC(=O)O)NC(=O)[C@@H]1CCCN1C(=O)[C@H](CCC(N)=O)NC(=O)[C@@H]1CCCN1C(=O)[C@H](Cc1ccccc1)NC(=O)[C@@H]1CCCN1C(=O)[C@H](CCC(N)=O)NC(=O)[C@@H]1CCC(=O)N1)C(N)=O) [Peptide 7] : 0 % of max
(pE)QPFPQPELPYPYPQ-amide ([pGlu]QPFPQPELPYPYPQ-NH2; SMILES CC(C)C[C@H](NC(=O)[C@H](CCC(=O)O)NC(=O)[C@@H]1CCCN1C(=O)[C@H](CCC(N)=O)NC(=O)[C@@H]1CCCN1C(=O)[C@H](Cc1ccccc1)NC(=O)[C@@H]1CCCN1C(=O)[C@H](CCC(N)=O)NC(=O)[C@@H]1CCC(=O)N1)C(=O)N1CCC[C@H]1C(=O)N[C@@H](Cc1ccc(O)cc1)C(=O)N1CCC[C@H]1C(=O)N[C@@H](Cc1ccc(O)cc1)C(=O)N1CCC[C@H]1C(=O)N[C@@H](CCC(N)=O)C(N)=O) [Peptide 16] : 24 % of max

Query: Return reported Percent of maximal response to individual gluten peptides, ELISp; argument: (pE)LQPFPQPELPYPQPQ-amide ([pGlu]LQPFPQPELPYPQPQ-NH2; SMILES CC(C)C[C@H](NC(=O)[C@@H]1CCC(=O)N1)C(=O)N[C@@H](CCC(N)=O)C(=O)N1CCC[C@H]1C(=O)N[C@@H](Cc1ccccc1)C(=O)N1CCC[C@H]1C(=O)N[C@@H](CCC(N)=O)C(=O)N1CCC[C@H]1C(=O)N[C@@H](CCC(=O)O)C(=O)N[C@@H](CC(C)C)C(=O)N1CCC[C@H]1C(=O)N[C@@H](Cc1ccc(O)cc1)C(=O)N1CCC[C@H]1C(=O)N[C@@H](CCC(N)=O)C(=O)N1CCC[C@H]1C(=O)N[C@@H](CCC(N)=O)C(N)=O) [Peptide 1]
Response: 0 % of max

Query: Try (pE)QPFPEQPEQIIPQQP-amide ([pGlu]QPFPEQPEQIIPQQP-NH2; SMILES CC[C@H](C)[C@H](NC(=O)[C@H](CCC(N)=O)NC(=O)[C@H](CCC(=O)O)NC(=O)[C@@H]1CCCN1C(=O)[C@H](CCC(N)=O)NC(=O)[C@H](CCC(=O)O)NC(=O)[C@@H]1CCCN1C(=O)[C@H](Cc1ccccc1)NC(=O)[C@@H]1CCCN1C(=O)[C@H](CCC(N)=O)NC(=O)[C@@H]1CCC(=O)N1)C(=O)N[C@H](C(=O)N1CCC[C@H]1C(=O)N[C@@H](CCC(N)=O)C(=O)N[C@@H](CCC(N)=O)C(=O)N1CCC[C@H]1C(N)=O)[C@@H](C)CC) [Peptide 12] next.
Response: 6 % of max
